Data origin, for the record: patent US7176204B2

- System name: human type PPARδ ligand-binding domain fused with DNA-binding domain of yeast transcription factor (Homo sapiens)
- Construct: expressed in transfected cells; host or cells: CHO cells
- Sequence (Q03181 211-439 limits assumed): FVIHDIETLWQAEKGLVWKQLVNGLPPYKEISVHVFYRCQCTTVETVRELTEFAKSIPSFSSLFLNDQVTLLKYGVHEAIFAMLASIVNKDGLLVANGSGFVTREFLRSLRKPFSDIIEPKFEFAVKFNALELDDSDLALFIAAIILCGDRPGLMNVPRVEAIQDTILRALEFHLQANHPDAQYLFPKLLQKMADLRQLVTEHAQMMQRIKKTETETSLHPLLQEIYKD
- Assay: Test of transactivation on PPAR (luciferase reporter, CHO cells), PPARδ
- Assay type: cell-based
- Condition summary: luciferase activity after 24 hours, corrected with Renilla internal standard
Quick reference: EC50 of the listed items.
Observation type: EC50 (µM)

> print(dat)
                                   compound  observation.type  censor.symbol  measured
1  CCOc1ccc(CC(CC)C(=O)O)cc1CNC(=O)c1ccc(Oc2ccccn2)cc1 (single isomer, unassigned; (+)) [Example 27]              EC50              =      0.21
2  CCC(Cc1ccc(OC)c(C(=O)NCc2ccc(Oc3ccccn3)cc2)c1)C(=O)O (centres unmarked)              EC50              >       100
3  CCOc1ccc(CC(CC)C(=O)O)cc1CNC(=O)c1ccc(Oc2ccccn2)cc1 (single isomer, unassigned; (-)) [Example 28]              EC50              =       1.1
4  CCOc1ccc(CC(CC)C(=O)O)cc1CNC(=O)c1ccc(Oc2ccccn2)cc1 (racemic) [Example 26]              EC50              =      0.19
5  CCC(Cc1ccc(OC)c(CNC(=O)c2ccc(Oc3cccnc3)cc2)c1)C(=O)O (centres unmarked)              EC50              =       2.2

* * *

- System name: human type PPARγ ligand-binding domain fused with DNA-binding domain of yeast transcription factor (Homo sapiens, UniProt P37231)
- Sequence (P37231 238-503 limits assumed): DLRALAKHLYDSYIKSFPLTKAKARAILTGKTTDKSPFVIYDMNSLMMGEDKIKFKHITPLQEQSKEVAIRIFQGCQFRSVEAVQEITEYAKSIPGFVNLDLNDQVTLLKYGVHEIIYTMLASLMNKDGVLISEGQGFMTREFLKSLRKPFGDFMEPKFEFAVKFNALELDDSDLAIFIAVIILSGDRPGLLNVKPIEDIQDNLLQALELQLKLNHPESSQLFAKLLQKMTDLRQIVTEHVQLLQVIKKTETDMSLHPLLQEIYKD
- Assay: Test of transactivation on PPAR (luciferase reporter, CHO cells), PPARγ
- Condition summary: luciferase activity after 24 hours, corrected with Renilla internal standard
pEC50: −log10 of the molar value.
Observation type: pEC50

> print(dat)
                                   compound  measured
1  CCC(Cc1ccc(OC)c(C(=O)NCc2ccc(Oc3ccccn3)cc2)c1)C(=O)O (centres unmarked)      5.02
2  CCOc1ccc(CC(CC)C(=O)O)cc1CNC(=O)c1ccc(Oc2ccccn2)cc1 (single isomer, unassigned; (-)) [Example 28]      6.24
3  CCC(Cc1ccc(OC)c(CNC(=O)c2ccc(Oc3cccnc3)cc2)c1)C(=O)O (centres unmarked)      5.27
4  CCOc1ccc(CC(CC)C(=O)O)cc1CNC(=O)c1ccc(Oc2ccccn2)cc1 (single isomer, unassigned; (+)) [Example 27]      6.26
5  CCOc1ccc(CC(CC)C(=O)O)cc1CNC(=O)c1ccc(Oc2ccccn2)cc1 (racemic) [Example 26]      6.39

* * *

The following compounds are listed with their measured pEC50 values.
- System name: human type PPARα ligand-binding domain fused with DNA-binding domain of yeast transcription factor (Homo sapiens, UniProt Q07869)
- Sequence (Q07869 239-466 limits assumed): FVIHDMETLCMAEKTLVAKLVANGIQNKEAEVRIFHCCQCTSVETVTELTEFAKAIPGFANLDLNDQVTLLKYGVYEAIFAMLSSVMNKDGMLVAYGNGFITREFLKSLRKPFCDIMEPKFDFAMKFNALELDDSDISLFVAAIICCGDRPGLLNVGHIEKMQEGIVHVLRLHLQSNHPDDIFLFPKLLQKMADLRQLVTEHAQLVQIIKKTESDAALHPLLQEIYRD
- Assay: Test of transactivation on PPAR (luciferase reporter, CHO cells), PPARα
- Condition summary: luciferase activity after 24 hours, corrected with Renilla internal standard
pEC50: −log10 of the molar value.
Observation type: pEC50

> print(dat)
                                   compound  measured
1  CCOc1ccc(CC(CC)C(=O)O)cc1CNC(=O)c1ccc(Oc2ccccn2)cc1 (racemic) [Example 26]      7.36
2  CCC(Cc1ccc(OC)c(C(=O)NCc2ccc(Oc3ccccn3)cc2)c1)C(=O)O (centres unmarked) [Example 18]      6.85
3  CCOc1ccc(CC(CC)C(=O)O)cc1CNC(=O)c1ccc(Oc2ccccn2)cc1 (single isomer, unassigned; (-)) [Example 28]      6.72
4  CCOc1ccc(CC(CC)C(=O)O)cc1CNC(=O)c1ccc(Oc2ccccn2)cc1 (single isomer, unassigned; (+)) [Example 27]      7.22
5  CCC(Cc1ccc(OC)c(CNC(=O)c2ccc(Oc3cccnc3)cc2)c1)C(=O)O (centres unmarked) [Example 23]      6.47
